The reported numbers originate from patent US20090092661A1.

# test_method_notes: Plasma pharmacokinetics in mice (another study, Table 2)
# Assay type: in vivo
# stated_conditions: mouse, iv, read-out: CL-obs (converted)
measurement_kind: clearance (mL/min)
Numbers only; they are read as mL/min.

The reported clearance of the compound `CC(C)C[C@H](NC(=O)[C@H](Cc1ccccc1)NC(=O)c1cnccn1)B(O)O` was 0.897

* * *

# test_method_notes: Pharmacokinetics in plasma, blood and tumor of SCID mice bearing CWR22 tumors (Example 7)
# Type: in vivo
# stated_conditions: male, SCID, mouse, iv; Tumor; mice, i.v. 0.8 mg/kg; read-out: AUC(0-24 h)
# Description: Liposome formulations prepared as described herein were administered in vivo to mice. As described in Example 7, liposomes comprised of 22:0PC/mPEG-DSPE (95/5) and containing entrapped bortezomib were prepared and administered intravenously to tumor-bearing mice. […] Blood and tumor samples were taken at various time points. The bortezomib concentrations in blood, plasma and tumor tissues were determined by LC-MS.
measurement_kind: AUC(0-t) (ng·h/mL)
Numbers only; they are read as ng·h/mL.

The reported AUC(0-t) of the molecule `CC(C)C[C@H](NC(=O)[C@H](Cc1ccccc1)NC(=O)c1cnccn1)B(O)O` was 12800

* * *

# test_method_notes: Plasma pharmacokinetics in mice (another study, Table 2)
# Format: in vivo
# stated_conditions: mouse, iv, read-out: Vss
measurement_kind: Vd
# number then unit; no other words

The reported Vd of the molecule CC(C)C[C@H](NC(=O)[C@H](Cc1ccccc1)NC(=O)c1cnccn1)B(O)O [bortezomib] was 0.37 L

* * *

# test_method_notes: Pharmacokinetics in plasma, blood and tumor of SCID mice bearing CWR22 tumors (Example 7)
# Assay type: in vivo
# stated_conditions: male, SCID, mouse, iv; Whole Blood; mice, i.v. 0.8 mg/kg
measurement_kind: Cmax (ng/mL)
Numbers only; they are read as ng/mL.

The reported Cmax of the compound `CC(C)C[C@H](NC(=O)[C@H](Cc1ccccc1)NC(=O)c1cnccn1)B(O)O` was 10300

* * *

# test_method_notes: Pharmacokinetics in plasma, blood and tumor of SCID mice bearing CWR22 tumors (Example 7)
# Format: in vivo
# stated_conditions: male, SCID, mouse, iv; Tumor; mice, i.v. 0.8 mg/kg
measurement_kind: Cmax (ng/mL)
Numbers only; they are read as ng/mL.

The reported Cmax of the compound `CC(C)C[C@H](NC(=O)[C@H](Cc1ccccc1)NC(=O)c1cnccn1)B(O)O` was 674

* * *

# test_method_notes: Pharmacokinetics in plasma, blood and tumor of SCID mice bearing CWR22 tumors (Example 7)
# Format: in vivo
# stated_conditions: male, SCID, mouse, intravenous, 0.8 mg/kg; Plasma; estimated using T½α phase; read-out: CL-obs (converted)
measurement_kind: clearance (mL/min/kg)
Numbers only; they are read as mL/min/kg.

The reported clearance of the compound CC(C)C[C@H](NC(=O)[C@H](Cc1ccccc1)NC(=O)c1cnccn1)B(O)O [bortezomib] was 0.222

* * *

# test_method_notes: Pharmacokinetics in plasma, blood and tumor of SCID mice bearing CWR22 tumors (Example 7)
# Format: in vivo
# stated_conditions: male, SCID, mouse, iv; Whole Blood; mice, i.v. 0.8 mg/kg; read-out: AUC(0-24 h)
measurement_kind: AUC(0-t)

The reported AUC(0-t) of the molecule `CC(C)C[C@H](NC(=O)[C@H](Cc1ccccc1)NC(=O)c1cnccn1)B(O)O` was 37200 ng·h/mL

* * *

# test_method_notes: Plasma pharmacokinetics in mice (another study, Table 2)
# Format: in vivo
# stated_conditions: mouse, iv, read-out: AUC(0-24 h)
measurement_kind: AUC(0-t) (ng·h/mL)
Numbers only; they are read as ng·h/mL.

The reported AUC(0-t) of the compound `CC(C)C[C@H](NC(=O)[C@H](Cc1ccccc1)NC(=O)c1cnccn1)B(O)O` was 271

* * *

# test_method_notes: Pharmacokinetics in plasma, blood and tumor of SCID mice bearing CWR22 tumors (Example 7)
# Assay type: in vivo
# stated_conditions: male, SCID, mouse, iv; Plasma; mice, i.v. 0.8 mg/kg; read-out: T1/2(α) (converted)
measurement_kind: half-life
# number then unit; no other words

The reported half-life of the compound `CC(C)C[C@H](NC(=O)[C@H](Cc1ccccc1)NC(=O)c1cnccn1)B(O)O` was 2.7 h

* * *

# test_method_notes: Plasma pharmacokinetics in mice (another study, Table 2)
# Format: in vivo
# stated_conditions: mouse, intravenous, read-out: Conc. At 5 min.
# Description: In another study, liposome-entrapped bortezomib was administered to mice and the pharmacokinetic parameters were determined. The liposomes were composed of 22:0PC/mPEG-DSPE and were prepared as described in Example 7.
measurement_kind: concentration at 5 min (ng/mL)
Numbers only; they are read as ng/mL.

The reported concentration at 5 min of the compound `CC(C)C[C@H](NC(=O)[C@H](Cc1ccccc1)NC(=O)c1cnccn1)B(O)O` was 423
